Values from patent US20200197409A1

- subject-of-test: CYP2C9 (Homo sapiens, UniProt P11712)
- Sequence (P11712 whole entry): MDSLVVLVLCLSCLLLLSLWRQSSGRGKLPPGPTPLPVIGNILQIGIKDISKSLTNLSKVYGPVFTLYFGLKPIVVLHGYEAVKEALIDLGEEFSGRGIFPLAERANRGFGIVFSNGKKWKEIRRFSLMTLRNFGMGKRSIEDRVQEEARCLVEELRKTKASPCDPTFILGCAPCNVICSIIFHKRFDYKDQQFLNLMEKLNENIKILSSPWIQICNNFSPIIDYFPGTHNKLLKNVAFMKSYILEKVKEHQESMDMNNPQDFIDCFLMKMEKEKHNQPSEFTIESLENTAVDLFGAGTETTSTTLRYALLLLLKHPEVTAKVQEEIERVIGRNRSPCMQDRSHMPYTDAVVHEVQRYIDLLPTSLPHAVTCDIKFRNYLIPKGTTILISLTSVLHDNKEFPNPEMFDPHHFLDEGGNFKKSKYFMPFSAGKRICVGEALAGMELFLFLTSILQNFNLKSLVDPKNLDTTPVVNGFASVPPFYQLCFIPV
property: IC50

[[record]]
record_smiles = "COCCCOc1cc2c(cc1OC)-c1cc(=O)c(C(=O)O)cn1[C@H](C(C)(C)C)CO2"
subject_of_test = "CYP2C9 (Homo sapiens, UniProt P11712)"
result = "> 50 µM"


* * *

- procedure-summary: Single-dose pharmacokinetic study on rat
- Type: in vivo, SD rats
- settings: male, SD, plasma, IV: 1 mg/kg, read-out: AUC0-last (Intravenous injection)
property: AUC(0-t)

[[record]]
compound = "COCCCOc1cc2c(cc1OC)-c1cc(=O)c(C(=O)O)cn1[C@H](C(C)(C)C)CO2 [Embodiment 6]"
property = "AUC(0-t)"
result = "1.36 µM·h"

